Field: pIC50. Provide a value for each of the molecules that follow.
molecular target: purified Na^+,K^+ -ATPase (Homo sapiens); construct: Na^+,K^+ -ATPase receptor purified according to Jorghensen; from tissue; experiment: inhibition of the activity of the purified Na^+,K^+ -ATPase (hydrolysis of ^32 P-ATP); assay type: biochemical
One number for each entry, as −log10 of the molar value.

C[C@]12CC[C@H](O)C[C@H]1CC[C@@H]1[C@@H]2CC[C@]2(C)[C@@H]([C@H]3COC(=O)C3)CC[C@]12O [DIGI 20(S), dihydrodigitoxigenin 20(S), reference compound] ... 5.60
C[C@]12CC[C@H](SCCN3CCCC3)C[C@H]1CC[C@@H]1[C@@H]2CC[C@]2(C)[C@@H](C3=CC(=O)OC3)CC[C@]12O ... 6.40

// moving on: another record for pIC50
Enquiry: Give a short answer stating reported pIC50 for `C[C@]12CC[C@H](SCCCN3CCCC3)C[C@H]1CC[C@@H]1[C@@H]2CC[C@]2(C)[C@@H](C3=CC(=O)OC3)CC[C@]12O` .
Return: 6.60
